Exercise: for every item that follows, state its recorded melting point.

melting point lookup needed for `Cn1ncnc1-c1oc2cc(C(=O)O)cc(OCc3ccc(F)cc3)c2c(=O)c1O` , thanks.
280 to 282 °C

Another compound: `COc1cc(F)ccc1Cc1ccc(C(=O)C2=C(O)C(=O)N(C)C2)o1`
134 to 135 °C

Another compound: `Cn1ncnc1-c1oc2cccc(CCc3ccc(F)cc3)c2c(=O)c1O`
192 to 193 °C

Another compound: `CC(C)N1CC(c2cc(CCc3ccccc3)ncn2)=C(O)C1=O`
229 to 231 °C

Lab note: each compound below needs its melting point filled in.
1. Cn1ccc(-c2nnc(Cc3ccc(F)cc3)o2)c(O)c1=O [Compound K-4]
2. CN1CC(c2cnc(Oc3ccccc3)cn2)=C(O)C1=O
3. CN1CC(c2ncc(Oc3ccc(F)cc3)cn2)=C(O)C1=O
4. CC(C)N1CC(C(=O)c2occc2Cc2ccc(F)cc2)=C(O)C1=O

216 to 218 °C
233 to 235 °C
230 to 232 °C
197 to 199 °C

Lab note: each compound below needs its melting point filled in.
1. CN1CC(C(=O)c2cnn(Cc3ccc(F)cc3)c2)=C(O)C1=O
2. CN1CC(c2cnc(Cc3ccc(F)cc3)cn2)=C(O)C1=O
3. CN1CC(C(=O)c2cc(C(=O)O)c(Cc3ccc(F)cc3)o2)=C(O)C1=O
4. CC(C)N1CC(C(=O)c2ccc(Cc3cccc4ccccc34)o2)=C(O)C1=O

1: 150 to 151 °C; 2: 223 to 225 °C; 3: 255 to 258 °C (dec.); 4: 165 to 166.5 °C

Lab note: each compound below needs its melting point filled in.
1. CC(C)N1CC(c2nccc(OCc3ccccc3)n2)=C(O)C1=O
2. CN1CC(c2nccc(CCc3ccccc3)n2)=C(O)C1=O
3. CC(C)Oc1cc(F)ccc1Cc1ccc(C(=O)C2=C(O)C(=O)N(C(C)C)C2)o1
4. O=c1c(O)c(-c2ncccn2)oc2cccc(OCc3ccc(F)cc3)c12

155 to 157 °C
118 to 119 °C
98 to 100 °C
252 to 254 °C

Lab note: each compound below needs its melting point filled in.
1. O=C(c1ccc(Cc2ccc(F)cc2)o1)c1occ(Br)c(=O)c1O
2. CC(C)Oc1cccc(Cc2ccc(C(=O)C3=C(O)C(=O)N(C(C)C)C3)o2)c1
3. O=C(c1ccc(Cc2ccc(F)cc2)o1)c1oc(C(=O)N2CCCCC2)cc(=O)c1O
4. CN1CC(c2cc(OCc3ccccc3)ncn2)=C(O)C1=O [Compound B-12]

191 to 192 °C
98 to 99 °C
146 to 148 °C
203 to 204 °C

Lab note: each compound below needs its melting point filled in.
1. CN1CC(c2cc(CCc3ccccc3)ncn2)=C(O)C1=O [Compound B-6-a]
2. CC(C)N1CC(c2cc(CCc3ccc(F)cc3)ncn2)=C(O)C1=O

1. 211 to 213 °C
2. 225 to 228 °C

====

readout name: melting point

Worked examples, 3 compounds total:
melting point lookup needed for `Cc1nc(=O)c(O)c(-c2nnc(Cc3ccc(F)cc3)o2)[nH]1` , thanks.
283 to 286 °C

Another compound: `O=c1c(O)c(-c2nnc(Cc3ccc(F)cc3)o2)[nH]c2ccccc12`
> 300 °C

Another compound: `CC(C)N1CC(c2ncc(Cc3ccc(F)cc3)cn2)=C(O)C1=O`
155 to 157 °C

Lab note: each compound below needs its melting point filled in.
1. CC(C)N1CC(C(=O)c2oc(Cc3ccc(F)cc3)cc2Cc2ccc(F)cc2)=C(O)C1=O
2. COCCN1CC(C(=O)c2ccc(Cc3ccc(F)cc3)o2)=C(O)C1=O
3. O=C1C(O)=C(c2cc(CCc3ccccc3)ncn2)CN1Cc1ccccc1
4. CN1CC(c2ccc([S+]([O-])c3ccc(F)cc3)cn2)=C(O)C1=O (centres unmarked)
5. CN1CC(c2ccc(OCc3ccc(F)cc3)cn2)=C(O)C1=O
6. CN1CC(C(=O)c2c[nH]cc2Cc2ccc(F)cc2)=C(O)C1=O

159 to 161 °C
105 to 106 °C
222 to 223 °C
228 to 230 °C
210 to 211 °C
265 to 267 °C

Lab note: each compound below needs its melting point filled in.
1. CC(C)N1CC(c2cnc(Oc3ccccc3)cn2)=C(O)C1=O
2. CC(C)N1CC(c2cnc(Oc3ccc(F)cc3)cn2)=C(O)C1=O

["216 to 217 °C", "227 to 229 °C"]
